assay: Solubility of the compound in water at 5 mg/mL after 3 hrs by HPLC analysis; type: physicochemical
metric: solubility at 3 h

* C[C@H]1[C@H](C)CC[C@]2(C)CC[C@]3(C)C(=CC(=O)[C@@H]4[C@@]5(C)CC[C@@H](O)[C@](C)(C(=O)O)[C@@H]5CC[C@]43C)[C@H]12 | 1.16 µg/mL
* CC(=O)O[C@@H]1CC[C@@]2(C)[C@@H](CC[C@]3(C)[C@@H]2C(=O)C=C2[C@@H]4[C@@H](C)[C@H](C)CC[C@]4(C)CC[C@]23C)[C@@]1(C)C(=O)O | 0.2 µg/mL

---

experiment: Ratio drug level in brain to plasma of rat at 240 mg/kg, po after 8 hrs; type: ADME, organism-based; design: dose 240 mg/kg, route oral; settings: brain and plasma, read-out: BPR
Listing of recorded Kp at 8 h by entry.
metric: Kp at 8 h

- CC(=O)O[C@@H]1CC[C@@]2(C)[C@@H](CC[C@]3(C)[C@@H]2C(=O)C=C2[C@@H]4[C@@H](C)[C@H](C)CC[C@]4(C)CC[C@]23C)[C@@]1(C)C(=O)O [AKBA]: 0.07
- C[C@H]1[C@H](C)CC[C@]2(C)CC[C@]3(C)C(=CC[C@@H]4[C@@]5(C)CC[C@@H](O)[C@](C)(C(=O)O)[C@@H]5CC[C@]43C)[C@H]12 [BOSWELLIC ACID]: 0.2
- CC1(C)CC[C@]2(C)CC[C@]3(C)C(=CC[C@@H]4[C@@]5(C)CC[C@@H](O)[C@](C)(C(=O)O)[C@@H]5CC[C@]43C)[C@@H]2C1: 0.18

---

assay: Solubility of the compound in water at pH 6.5; format: physicochemical
metric: solubility

- C[C@H]1[C@H](C)CC[C@]2(C)CC[C@]3(C)C(=CC(=O)[C@@H]4[C@@]5(C)CC[C@@H](O)[C@](C)(C(=O)O)[C@@H]5CC[C@]43C)[C@H]12 [11-KETO BOSWELLIC ACID]: 73.1 µg/mL
- CC(=O)O[C@@H]1CC[C@@]2(C)[C@@H](CC[C@]3(C)[C@@H]2C(=O)C=C2[C@@H]4[C@@H](C)[C@H](C)CC[C@]4(C)CC[C@]23C)[C@@]1(C)C(=O)O [AKBA]: > 60 µg/mL

---

test: Solubility of the compound in fasted state simulated intestinal fluid at compound to Lipoid S100 ratio 1:1 after 3 hrs by HPLC analysis in presence of 10:1 molar ratio of Lipoid S100 to tween 80; assay type: physicochemical
metric: solubility at 3 h (µg/mL)

• C[C@H]1[C@H](C)CC[C@]2(C)CC[C@]3(C)C(=CC(=O)[C@@H]4[C@@]5(C)CC[C@@H](O)[C@](C)(C(=O)O)[C@@H]5CC[C@]43C)[C@H]12 = 78.2
• CC(=O)O[C@@H]1CC[C@@]2(C)[C@@H](CC[C@]3(C)[C@@H]2C(=O)C=C2[C@@H]4[C@@H](C)[C@H](C)CC[C@]4(C)CC[C@]23C)[C@@]1(C)C(=O)O = 13.4

---

test: Solubility of the compound in fed state simulated intestinal fluid at compound to Lipoid S100 ratio 1:1 after 3 hrs by HPLC analysis; format: physicochemical
List of solubility at 3 h values.
metric: solubility at 3 h (µg/mL)

* CC(=O)O[C@@H]1CC[C@@]2(C)[C@@H](CC[C@]3(C)[C@@H]2C(=O)C=C2[C@@H]4[C@@H](C)[C@H](C)CC[C@]4(C)CC[C@]23C)[C@@]1(C)C(=O)O | 48
* C[C@H]1[C@H](C)CC[C@]2(C)CC[C@]3(C)C(=CC(=O)[C@@H]4[C@@]5(C)CC[C@@H](O)[C@](C)(C(=O)O)[C@@H]5CC[C@]43C)[C@H]12 | 252

These entries and their values trace back to ChEMBL document CHEMBL2150989.
